Tested on: volatile sulfide production from saliva
Measurement protocol: Inhibition of volatile sulfide production from saliva (anaerobic culture, FPD-GC of head space)
Format: cell-based
Experimental conditions: 500 ppm, saliva cultured 37° C. 3 hours under nitrogen; read-out: CH3SH Inhib. %
Examples of compounds with documented inhibition at 500 ppm follow.
Reply numerically in %, unit not repeated.

A selection of reference data follows.
Compound	Unit annotation	Numeric result
CC=Cc1ccc(O)c(OC)c1	%	100
CC1=CCC(C(C)C)=CC1	%	66
C=CCc1ccc(O)c(OC)c1	%	100
C=C1CCC2CC1C2(C)C (stereo not drawn)	%	59
C=CC(C)(CCC=C(C)C)OC(C)=O (stereo not drawn) [Linalyl acetate]	%	43

Entry "CC(C)=CCCC(C)=CC=O" ; assay system volatile sulfide production from saliva; inhibition at 500 ppm recorded at 100
